Molecular target: EcCoaA (prokaryotic type I pantothenate kinase) (Escherichia coli, UniProt P0A6I3)
Construct: recombinant from pET15b/bPanK in E. coli BL21 (DE3), nickel-resin purified, His-tag
Sequence (P0A6I3 1-316): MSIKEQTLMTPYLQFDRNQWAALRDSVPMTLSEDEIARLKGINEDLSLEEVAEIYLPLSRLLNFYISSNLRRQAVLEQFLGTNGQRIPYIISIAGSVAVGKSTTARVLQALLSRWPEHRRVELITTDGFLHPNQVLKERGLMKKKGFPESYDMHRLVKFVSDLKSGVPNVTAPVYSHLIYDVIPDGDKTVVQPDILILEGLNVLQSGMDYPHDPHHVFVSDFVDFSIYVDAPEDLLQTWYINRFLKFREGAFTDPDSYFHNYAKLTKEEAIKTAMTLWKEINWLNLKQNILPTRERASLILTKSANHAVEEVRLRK
Experiment: radiometric pantothenate kinase assay with D-[…]pantothenate
measurement name: IC50 (mM)
Express the result in mM but write the number alone.

Incoming: Provide one value: measured IC50 of CC(C)(CO)[C@@H](O)C(=O)NCCCO [d-pantothenol]
Outgoing: 6.06
